# Tested on: HIV-1ERS104pre (wild type)
# test.name: Antiviral assay in PHA-PBMs, inhibition of p24 Gag protein production, wild-type isolate
# Type: cell-based
# run.parameters: Human immunodeficiency virus 1, read-out: IC50 ± SDs
endpoint: pIC50
# log scale: pIC50 equals minus log10 of the concentration in mol/L

- smiles.text: "COc1ccc(S(=O)(=O)N(CC(C)C)C[C@@H](O)[C@H](Cc2ccccc2)NC(=O)O[C@@H]2C[C@@H]3[C@H](O)CO[C@@H]3C2)cc1"
  endpoint: "pIC50"
  test.result: 7.70

API: the following record is the query input.
COc1ccc(S(=O)(=O)N(CC(C)C)C[C@@H](O)[C@H](Cc2ccccc2)NC(=O)O[C@@H]2C[C@@H]3[C@@H](O)CO[C@@H]3C2)cc1 tested on HIV-1ERS104pre (wild type) gave pIC50: 8.54

The reported measurements were obtained from patent US9309213B2.
